# System: CD2F1 mice, L1210 leukemia ip, survival T/C
# assay.details: NCI In Vivo Anticancer Drug Screen. Data for tumor model L1210 Leukemia (intraperitoneal) in CD2F1 (CDF1) mice
# cond: endpoint: mean survival time; dose: 12.5 mg/kg/injection; schedule: Q01DX009 (ip); vehicle: saline with Tween-80; higher = longer survival
Inconclusive results and toxic doses are left out.
Entries and their T/C values follow.

Below, 5 molecules whose answers are already recorded.
{"molecule": "c1cc2c(cc1-c1nnc(-c3ccc4c(c3)OCO4)nn1)OCO2", "result": "94 % of control"}
{"molecule": "COc1cc(OC)c(NC(=O)Oc2ccc(Br)cc2Br)cc1Cl", "result": "92 % of control"}
{"molecule": "N#CSCc1ccc(Cl)cc1", "result": "96 % of control"}
{"molecule": "CC[C@H](CC[C@@H](C)C1CC[C@H]2[C@@H]3CC=C4C[C@@H](OP(=O)(N5CC5)N5CC5)CC[C@]4(C)[C@H]3CC[C@]12C)C(C)C (some centres not stated)", "result": "97 % of control"}
{"molecule": "O=C=Nc1cccc2c(N=C=O)cccc12", "result": "91 % of control"}

What measured T/C goes with CN(C)c1ccc(C(=N)c2ccc(N(C)C)cc2)cc1 (tested in a mixture with another compound) ?
98 % of control

What measured T/C goes with "O=C(Nc1ccc(Cl)c(Cl)c1)Nc1c(Oc2ccc(Cl)c(Cl)c2)ccc(Cl)c1S(=O)(=O)O" ?
110 % of control

What measured T/C goes with "O=C1C(=O)C(Cl)=C(Cl)C(Cl)=C1Cl" ?
96 % of control

What measured T/C goes with "O=S(=O)(N=N/C=C1\C=CC=CN1O)c1cccs1" ?
95 % of control

What measured T/C goes with "O=c1[nH]c(=O)c2ccccc2o1" ?
101 % of control

What measured T/C goes with "CCCC(=O)c1cc(O)c(O)cc1O" ?
111 % of control

What measured T/C goes with "C[N+](C)(C)Cc1ccccc1" ?
95 % of control

---

# Test system: CD2F1 mice, L1210 leukemia ip, survival T/C
# assay.details: NCI In Vivo Anticancer Drug Screen. Data for tumor model L1210 Leukemia (intraperitoneal) in CD2F1 (CDF1) mice
# cond: endpoint: mean survival time; dose: 25.0 mg/kg/injection; schedule: Q04DX003 (ip); vehicle: saline with Tween-80; higher = longer survival
Inconclusive results and toxic doses are left out.
Entries and their T/C values follow.

Below, 5 compounds whose answers are already recorded.
{"compound": "N#Cc1ncc(Cl)cc1[N+](=O)[O-]", "assay.system": "CD2F1 mice, L1210 leukemia ip, survival T/C", "T/C": "101 % of control"}
{"compound": "CCOC(=O)c1ccc(NC(=O)Nc2ccc(N(C)C(C)=O)cc2)cc1", "assay.system": "CD2F1 mice, L1210 leukemia ip, survival T/C", "T/C": "98 % of control"}
{"compound": "c1ccc(CN2CCNCC2)cc1", "assay.system": "CD2F1 mice, L1210 leukemia ip, survival T/C", "T/C": "101 % of control"}
{"compound": "CN(C)CC1CCCCC1OC(=O)c1ccccc1 (configuration not stated)", "assay.system": "CD2F1 mice, L1210 leukemia ip, survival T/C", "T/C": "93 % of control"}
{"compound": "O=C1c2cscc2C(=O)c2c(Cl)sc(Cl)c21", "assay.system": "CD2F1 mice, L1210 leukemia ip, survival T/C", "T/C": "98 % of control"}

What measured T/C goes with "CC1(C)CCC(C#N)=C1N" ?
97 % of control

What measured T/C goes with "NC(=O)C[P+](c1ccccc1)(c1ccccc1)c1ccccc1" ?
109 % of control

---

# System: CD2F1 mice, L1210 leukemia ip, survival T/C
# assay.details: NCI In Vivo Anticancer Drug Screen. Data for tumor model L1210 Leukemia (intraperitoneal) in CD2F1 (CDF1) mice
# cond: endpoint: mean survival time; dose: 50.0 mg/kg/injection; schedule: Q04DX002 (ip); vehicle: saline with Tween-80; higher = longer survival
Inconclusive results and toxic doses are left out.
quantity.kind: T/C

Below, 8 compounds whose answers are already recorded.
{"compound": "C(#CCNC1CCCCC1)CNC1CCCCC1", "T/C": "98 % of control"}
{"compound": "CC1CC(C)(C)N=C(CCCCCCl)O1 (stereo unspecified)", "T/C": "101 % of control"}
{"compound": "O=C(O)/C=C(/C(=O)O)c1cccn1Cc1ccccc1", "T/C": "101 % of control"}
{"compound": "Cc1sc2cc(N)ccc2[n+]1C", "T/C": "95 % of control"}
{"compound": "CCCCCC(C)(C)N=[P+]([O-])NC(C)(C)CCCCC (stereo unspecified)", "T/C": "102 % of control"}
{"compound": "[Br][Ni][Br].[NH-]CC[NH-].[NH-]CC[NH-]", "T/C": "110 % of control"}
{"compound": "Nc1nc2c(ncn2-c2ccc(Cl)c(Cl)c2)c(=O)[nH]1", "T/C": "98 % of control"}
{"compound": "N#CC(C#N)CN(C1=NCCO1)c1cccc2c1CCCC2", "T/C": "94 % of control"}

Turning now to a further record.
Form: Entry = "CC(=O)Oc1cc2c(OC(C)=O)c(-c3c(C)cc4c(C(C)C)c(OC(C)=O)c(OC(C)=O)cc4c3OC(C)=O)c(C)cc2c(C(C)C)c1OC(C)=O" | System = CD2F1 mice, L1210 leukemia ip, survival T/C | T/C = ____
96 % of control

---

# Tested on: CD2F1 mice, L1210 leukemia ip, survival T/C
# assay.details: NCI In Vivo Anticancer Drug Screen. Data for tumor model L1210 Leukemia (intraperitoneal) in CD2F1 (CDF1) mice
# cond: endpoint: mean survival time; dose: 100.0 mg/kg/injection; schedule: Q01DX009 (ip); vehicle: saline with Tween-80; higher = longer survival
# Experimental: The antitumor activity of compounds was measured in mice bearing transplantable tumors. Survival or tumor size were measured and the results are expressed as the measurement made in the treated group (T) divided by the measurement made in the vehicle treated control group (C). The tumor model used in this assay is L1210 Leukemia (intraperitoneal) in CD2F1 (CDF1) mice
Toxic doses and inconclusive results are not listed.
quantity.kind: T/C

Below, 3 compounds whose answers are already recorded.
{"compound": "CC(=O)Oc1ccc(Nc2c3ccccc3nc3ccccc23)cc1", "T/C": "88 % of control"}
{"compound": "COc1ccc(N=C2C=CC(=O)O2)cc1", "T/C": "97 % of control"}
{"compound": "CCC(=O)Oc1[nH]c(C)c(C(C)=O)c1C", "T/C": "100 % of control"}

What measured T/C goes with "O=C(CNC(=O)c1ccccc1)N/N=C/c1ccccc1O" ?
94 % of control

What measured T/C goes with "O=C(Nc1ccc(F)cc1)c1cccc(C(=O)Nc2ccc(F)cc2)c1" ?
94 % of control

What measured T/C goes with CC(SC(C)c1ccccc1)c1ccccc1 (configuration not stated) ?
98 % of control

What measured T/C goes with "O=C(N/N=C/c1cccc([N+](=O)[O-])c1)c1ccc(Cl)cc1Cl" ?
100 % of control

What measured T/C goes with "Clc1ccc(Sc2ccc(Cl)cc2)cc1" ?
98 % of control

---

# Tested on: CD2F1 mice, L1210 leukemia ip, survival T/C
# assay.details: NCI In Vivo Anticancer Drug Screen. Data for tumor model L1210 Leukemia (intraperitoneal) in CD2F1 (CDF1) mice
# cond: endpoint: mean survival time; dose: 200.0 mg/kg/injection; schedule: Q01DX009 (ip); vehicle: saline with Tween-80; higher = longer survival
Inconclusive results and toxic doses are left out.
Entries and their T/C values follow.

{"molecule": "C1COC2(CCC3(CC2)OCCO3)O1", "assay.system": "CD2F1 mice, L1210 leukemia ip, survival T/C", "result": "102 % of control"}
{"molecule": "COS(=O)C(c1ccccc1)C(c1ccccc1)C(O)c1ccccc1 (configuration not stated)", "assay.system": "CD2F1 mice, L1210 leukemia ip, survival T/C", "result": "90 % of control"}
{"molecule": "Clc1ccc(Sc2ccc(Cl)cc2)cc1", "assay.system": "CD2F1 mice, L1210 leukemia ip, survival T/C", "result": "102 % of control"}

What measured T/C goes with "COc1ccc(OC)c(NC(=O)Nc2ccc(NC(C)=O)cc2)c1" ?
95 % of control

What measured T/C goes with "S=C(NCCSC(=S)Nc1ccccc1)Nc1ccccc1" ?
89 % of control

What measured T/C goes with "CCNc1nc(NCC)nc(OC)n1" ?
103 % of control

What measured T/C goes with CC(=O)OC1CCC2(C)C(CCC3C2CCC2(C)C3CC3OC(CCC(C)CO)C(C)C32)C1 (configuration not stated) ?
91 % of control

What measured T/C goes with "Clc1c(Cl)c(Cl)c(CSCc2c(Cl)c(Cl)c(Cl)c(Cl)c2Cl)c(Cl)c1Cl" ?
96 % of control

What measured T/C goes with "Cc1cccc(NC(=O)/C=C/C(=O)O)c1" ?
100 % of control

What measured T/C goes with "COc1ccccc1NC(N)=O" ?
86 % of control

What measured T/C goes with O=C1NC(=O)C(c2ccccc2)(c2ccc(O)cc2)N1 (configuration not stated) ?
95 % of control

What measured T/C goes with "O=C(OCCO)c1ccccc1" ?
97 % of control

What measured T/C goes with CCOC(=O)C1CC(=O)C(C(=O)OCC)CC1=O (configuration not stated) ?
97 % of control
